target: human Syk (GST-Syk) (Homo sapiens); construct: A cDNA fragment encoding human Syk openreading frame was cloned; made in house; host or cells: Sf21 insect cells (baculovirus, transfer vector pAcG2T); experiment: Syk tyrosine kinase inhibitory assay; type: biochemical; conditions: Table 13; read-out: Activity grade
pIC50: −log10 of the molar value.
The entries below come with measured pIC50 values attached.
parameter: pIC50

• CCCSc1nc(-c2ccc(OC)c(OC)c2)cc2nccn12 = > 6.30
• CCC(C)Sc1nc(-c2ccc(OC)c(OC)c2)cc2nccn12 (centres unmarked) = > 6.30
• COc1ccc(-c2cc3nccn3c(SC3CCCC3)n2)cc1OC = > 6.30
• COc1ccc(-c2cc3nccn3c(Oc3ccccc3Br)n2)cc1OC = 5.70 to 6.30
• COc1ccc(-c2cc3nccn3c(SCCNC(=O)OC(C)(C)C)n2)cc1OC = 5.70 to 6.30
• COc1ccc(-c2cc3nccn3c(SCCN(C(C)C)C(C)C)n2)cc1OC = 5.70 to 6.30
• COc1ccc(-c2cc3nccn3c(SCC(C)C)n2)cc1OC = > 6.30
• COc1ccc(-c2cc3ncnn3c(Sc3ccc(/C=C/C(=O)O)cc3)n2)cc1OC = > 6.30
• COc1ccc(-c2cc3ncnn3c(Sc3ccc(NCC(=O)O)cc3)n2)cc1OC = > 6.30
• COc1ccc(-c2cc3nccn3c(SCc3ccccc3)n2)cc1OC = > 6.30
• COc1ccc(-c2cc3nccn3c(Oc3cccc(Br)c3)n2)cc1OC = 5.70 to 6.30
• COc1ccc(-c2cc3nccn3c(SC3CCCCC3)n2)cc1OC = > 6.30
• COc1ccc(-c2cc3nccn3c(SCCC(C)C)n2)cc1OC = 5.70 to 6.30
• COc1ccc(-c2cc3nccn3c(SCCc3cnccn3)n2)cc1OC = > 6.30
• COc1ccc(-c2cc3ncnn3c(Oc3ccc(CCC(=O)O)cc3)n2)cc1OC = 5.70 to 6.30
• COc1ccc(-c2cc3nccn3c(SCCc3ccccc3)n2)cc1OC = 5.70 to 6.30
• COC(=O)c1cccnc1Nc1nc(-c2ccc(OC)c(OC)c2)cc2nccn12 = 5.00 to 5.70
• COc1ccc(-c2cc3nccn3c(SCC(F)(F)F)n2)cc1OC = > 6.30
• COc1ccc(-c2cc3nccn3c(SCc3cccc(C(F)(F)F)c3)n2)cc1OC = 5.00 to 5.70
• c1ccc(Sc2nc(-c3ccccc3)cc3ncnn23)cc1 = 5.00 to 5.70

###

The entries below come with measured IC50 values attached.
molecular target: human Syk (GST-Syk) (Homo sapiens); construct: A cDNA fragment encoding human Syk openreading frame was cloned; made in house; host or cells: Sf21 insect cells (baculovirus, transfer vector pAcG2T); assay: Syk tyrosine kinase inhibitory assay; format: biochemical; details: in vitro; compounds as yielded by solid phase synthesis, purity about 40 to 90%; read-out: Activity grade (IC50 class)
parameter: IC50

- COc1ccc(-c2cc3nccn3c(Nc3ccc(C(N)=O)c(N)c3)n2)cc1OC: < 500 nM
- COC(=O)CCCc1ccc(N(C)c2nc(-c3ccc(OC)c(OC)c3)cc3nccn23)cc1: 500 to 2000 nM
- COc1ccc(-c2cc3ncnn3c(Nc3ncccc3O)n2)cc1OC: 2000 to 10000 nM
- COc1ccc(-c2cc3nccn3c(Nc3ccc(/C=C/C(=O)OC(C)(C)C)cc3C(N)=O)n2)cc1OC: < 500 nM
- COc1ccc(-c2cc3nccn3c(Nc3ccccc3[N+](=O)[O-])n2)cc1OC: < 500 nM
- COc1ccc(-c2cc3nccn3c(Sc3ccccc3Br)n2)cc1OC: < 500 nM
- COc1ccc(Nc2nc(-c3ccc(OC)c(OC)c3)cc3ncnn23)cc1: < 500 nM
- COc1ccc(-c2cc3nccn3c(Nc3ccccc3Cl)n2)cc1OC: < 500 nM
- CCSc1nc(-c2ccc(OCc3ccc(OC)cc3)c(OC)c2)cc2nccn12: 500 to 2000 nM
- COc1ccc(-c2cc3nccn3c(Nc3cc(N(C)C)ccc3C(N)=O)n2)cc1OC: < 500 nM
- COc1ccc(-c2cc3nccn3c(Sc3ccc(CCC(=O)O)cc3)n2)cc1O: < 500 nM
- COC(=O)[C@H](Cc1ccc(O)cc1)Nc1nc(-c2ccc(OC)c(OC)c2)cc2nccn12: 2000 to 10000 nM
- CCSc1nc(-c2ccc(OC)c(S(=O)(=O)N3CCN(CCO)CC3)c2)cc2nccn12: < 500 nM
- COc1ccc(-c2cc3nccn3c(N3CCN(c4ccc(C(C)=O)cc4)CC3)n2)cc1OC: 2000 to 10000 nM
- COC(=O)CCc1ccc(Nc2nc(-c3ccc(OC)c(OC)c3)cc3nccn23)cc1: < 500 nM
- COc1ccc(-c2cc3nccn3c(N(C)c3ccc(S(=O)(=O)O)cc3)n2)cc1OC: 2000 to 10000 nM
- CCNc1nc(-c2ccc(OC)c(OC)c2)cc2nccn12: < 500 nM
